# PROTOCOL DETAILS: small-molecule microarray binders of probe aNog, primary screen, biochemical, biotinylated probe, 635/667 nm fluorescence (AID 1115);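 further: probe is biotinylated aNog protein used at 0.15 µg/mL for 1 h at 4 C; z-score combines 667 nm fluorescence of each spot with its signal to noise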
# MEASUREMENT SETUP: higher = more signal
EXPERIMENTAL ENDPOINT: composite z-score
Could you keep your reply to the number by itself?

COC(=O)[C@@]1(Cc2ccc(OC)cc2)[C@@H]2C(=CC(=O)[C@H]2CC(=O)C(=O)N(C)C)CN1C(=O)c1ccccc1 : 2.25
CO[C@H]1O[C@H](CO)[C@@H](OC(=O)Nc2ccccc2-c2ccccc2)[C@H](OC(=O)Nc2ccc3c(c2)OCO3)[C@H]1OC(=O)Nc1ccc2c(c1)OCO2 : 1.19
COc1ccccc1CN1C(=O)c2ccccc2[C@](Cc2ccccc2I)(C(=O)NCC(F)(F)F)[C@@H]1c1ccc(CO)cc1 : 0.0286
O=C1OCCC=C[C@H]2OC34C=CCN(Cn5nnc6ccccc65)C(=O)[C@H]3N(CCCCCCO)C(=O)[C@@H]4C12 (some centres not stated) : -0.142
COCCOC(=O)N1C(=O)[C@@]2(c3cc(C#Cc4ccc(OC)cc4)ccc31)[C@H](c1ccc(O)cc1)N1[C@H](c3ccccc3)[C@H](c3ccccc3)OC(=O)[C@H]1[C@@H]2C(=O)N1CCCCCCC1 : 1.48

Exercise: If you can, please state the reported composite z-score value of COC(=O)[C@@]1(Cc2ccccc2N=[N+]=[N-])N=C(c2ccc(OCCCO)cc2)O[C@H]1c1ccccc1N=[N+]=[N-] .
Key: 1.05

Exercise: If you can, please state the reported composite z-score value of CC(C)N1CC=CC23O[C@@H]4C=CCOC(=O)[C@@H]4[C@H]2C(=O)N(CCCO)[C@@H]3C1=O (some centres not stated) .
Key: -0.196

---

# PROTOCOL DETAILS: binders of probe aFGF2 on microarray, primary screen, stem cell growth factor project, biochemical, small-molecule microarray, fluorescence 635/667 (AID 1067);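 further: measures binding of biotinylated aFGF2 protein to printed compounds on slides; z-score merges feature fluorescence and signal-to-noise across triplicate slides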
# MEASUREMENT SETUP: higher = more signal
Please use Criterion met whenever composite z-score is not below -0.1, and Criterion not met whenever it is.

Some solved entries appear below for comparison.
CC(C)[Si](C#C[Si](C(C)C)(C(C)C)C(C)C)(O[C@H](C)c1cn([C@H](CO)Cc2ccccc2)nn1)C(C)C : Criterion not met
CC(C)C(=C=CC[C@H](O)c1cccc(OCCO)c1)C[C@H](O)c1cc(Cl)cc(Cl)c1O : Criterion not met

Exercise: Please check the record CCCC[C@@H]1C[C@H]1[C@@H](NC(=O)c1cccs1)c1ccc(C(F)(F)F)cc1 and state if its composite z-score is at or above -0.1.
Key: Criterion met

Exercise: Please check the record CCOC(=O)c1ccc(NC(=O)O[C@H]2[C@H](OC(=O)Nc3ccc4c(c3)OCO4)[C@@H](OC(=O)Nc3ccc4c(c3)OCO4)[C@@H](OC)O[C@@H]2CO)cc1 and state if its composite z-score is at or above -0.1.
Key: Criterion met

Exercise: Please check the record O=C(CS)NCCCCCNC(=O)[C@@H]1C[C@@H]2C(=O)N3CCC[C@H]3C(=O)N2[C@@H]1c1cccc(OCCO)c1 and state if its composite z-score is at or above -0.1.
Key: Criterion not met

Exercise: Please check the record COC(=O)[C@@]1(Cc2ccc(F)cc2)[C@H]2c3cc(C(=O)N4CCCC4)n(CCc4ccc(O)c(O)c4)c3C[C@H]2CN1C(=O)c1ccccc1 and state if its composite z-score is at or above -0.1.
Key: Criterion met

---

# PROTOCOL DETAILS: inhibitors of hydroxyurea-induced Chk1 phosphorylation, primary screen, imaging, HeLa, phospho-Chk1 antibody, percent positive cells (AID 1186)
# MEASUREMENT SETUP: hydroxyurea-induced phospho-Chk1 immunofluorescence imaging, higher = more signal
Calls of active or inactive are those of the source. No rule for the calls is given here.
EXPERIMENTAL ENDPOINT: z-score

Consider the following illustrative entries.
COc1cc(OC)c(C(O)C2C=CC3C(=O)N(C)C(=O)C3N2NC(=O)OC(C)(C)C)cc1Br (centres undefined) : 0.111 (inactive)
O=C1O[C@H](c2ccccc2)[C@H](c2ccccc2)N2[C@H]1[C@@H](C(=O)O)[C@]1(C(=O)Nc3ccc(C#CC4=CCCCC4)cc31)[C@H]2c1ccc(O)cc1 : -0.0146 (inactive)
C=C(/C(=C/C[C@H](OC(C)=O)c1cccc(OCCO)c1)c1cnc2ccccc2c1)C(C)C : -0.192 (inactive)

# evaluate next
Exercise: If you can, please state the reported z-score value of CCC(CC)C(O)C1C=CC2C(=O)N(c3ccccc3)C(=O)C2N1Nc1ccc(C(C)C)cc1 (centres undefined) .
Key: -0.681 (inactive)

---

Some molecules, each annotated with its measured composite z-score.
# PROTOCOL DETAILS: small-molecule microarray binders of probe aCHRDL2, primary screen, biochemical, biotinylated probe, 635/667 nm fluorescence (AID 1100)
# MEASUREMENT SETUP: higher = more signal
Could you keep your reply to the number by itself?

Consider the following illustrative entries.
COc1ccc(CCN2C(=O)[C@@]3(Cc4ccccc42)c2ccccc2C(=O)N(Cc2ccccc2OC)[C@H]3c2ccc(CO)cc2)cc1 : 0.406
O=C(NCCCCCNC(=O)/C(Cc1ccccc1)=N/O)OCc1ccccc1 : -0.603
CN(C)C(=O)[C@@]1(Cc2ccccc2CN=[N+]=[N-])N=C(c2ccc(OCCCO)cc2)O[C@H]1c1ccccc1CN=[N+]=[N-] : 0.915

# evaluate next
Exercise: If you can, please state the reported composite z-score value of COC(=O)c1c2oc(c1C(=O)OC)C(=O)N(C)Cc1cn(nn1)C[C@H](Cc1ccccc1)NC(=O)N[C@H](CO)CC2 .
Key: -0.264

---

# System: glycogen synthase kinase-3 (GSK3A per assay name; protocol says GSK3B)
# PROTOCOL DETAILS: GSK3 binders on small-molecule microarrays, primary screen, biochemical, small-molecule microarray, 635 nm fluorescence, GSK3A (AID 1103); further: the record names both GSK3A and GSK3B
# MEASUREMENT SETUP: small-molecule microarray binding, fluorescence 635 nm; higher = more signal
Please use Condition met whenever composite z-score is not below -0.2, and Condition not met whenever it is.

CCOC(=O)c1ccc(NC(=O)O[C@H]2[C@H](OC(=O)Nc3ccc4c(c3)OCO4)[C@@H](OC(=O)Nc3ccc4c(c3)OCO4)[C@@H](OC)O[C@@H]2CO)cc1 : Condition met
COc1ccc(NC(=O)O[C@H]2[C@H](OC(=O)Nc3ccccc3)[C@@H](OC(=O)Nc3ccccc3)[C@@H](OC)O[C@@H]2CO)cc1 : Condition met
CC=CC(O)C1C=CC2C(=O)N(c3ccccc3)C(=O)C2N1Nc1ccccc1F (configuration not stated) : Condition not met
COc1cc2c(cc1OC)CN(C(=O)[C@@H]1[C@H]3C(=O)O[C@H](c4ccccc4)[C@H](c4ccccc4)N3[C@H](c3ccc(OCCO)cc3)[C@@]13C(=O)Nc1ccc(C#CC4(O)CCCCCC4)cc13)CC2 : Condition met
CN1C(=O)C2C=CC(C(O)c3cccc(O)c3)N(Nc3ccccc3)C2C1=O (configuration not stated) : Condition not met
CC1=C([C@H](O)CCc2ccccc2)[C@H](CO)[C@@H]2C(=O)N(C)C(=O)[C@@H]2C1 : Condition met

Exercise: Please check the record Cc1ccc(S[C@]2(C(=O)NCC(F)(F)F)CC(=O)N(Cc3ccccc3)[C@@H]2c2ccc(CO)cc2I)cc1 and state if its composite z-score is at or above -0.2.
Key: Condition not met

---

# System: Sam68 (KHDRBS1)
# PROTOCOL DETAILS: Sam68 small-molecule binders, primary screen, biochemical, small-molecule microarray, 635 nm fluorescence (AID 1125);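 further: score merges 667 nm channel intensity with signal to noise over triplicate slides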
# MEASUREMENT SETUP: small-molecule microarray binding, higher = more signal
EXPERIMENTAL ENDPOINT: composite z-score
Could you keep your reply to the number by itself?

[N-]=[N+]=Nc1ccccc1[C@H]1OC(c2ccc(OCCCO)cc2)=N[C@@]1(Cc1ccccc1)C(=O)N1CCCCC1 : 1.13
C=C[C@@H](COC(C)=O)N(C(=O)OC(C)(C)C)S(=O)(=O)c1ccc(Br)cc1 : 0.827
COCCCNC(=O)[C@]1(CCS(=O)(=O)c2ccccc2)N=C(c2ccc(OCCCO)cc2)O[C@@H]1c1ccccc1CN=[N+]=[N-] : 1.3
COC(=O)[C@@]1(Cc2ccc(OC)cc2)[C@@H]2C(=CC(=O)[C@H]2CC(=O)C(=O)N(C)C)CN1C(=O)c1ccccc1 : 1.31
C=CCOC(=O)[C@H]1[C@@H]2C(=O)O[C@@H](c3ccccc3)[C@@H](c3ccccc3)N2[C@@H](c2ccc(OCCOC(=O)[C@@H]3C[C@@H]4C(=O)N[C@@H](CCCCN(C)C)C(=O)N4[C@@H]3c3ccc(O)cc3)cc2)[C@]12C(=O)Nc1ccccc12 : 1.31

Exercise: If you can, please state the reported composite z-score value of CC(C)[Si](C#C[Si](C(C)C)(C(C)C)C(C)C)(O[C@H](C)c1cn([C@H](CO)Cc2ccccc2)nn1)C(C)C .
Key: 0.193

Exercise: If you can, please state the reported composite z-score value of CN(C)CCCCNC(=O)[C@@H]1C[C@@H]2C(=O)N[C@@H](Cc3ccccc3)C(=O)N2[C@@H]1c1cccc(OCCO)c1 .
Key: 1.06

Exercise: If you can, please state the reported composite z-score value of CN(C)C(=O)C1N=C(c2ccc(OCCCO)cc2)N(c2ccccc2)O1 (centres undefined) .
Key: 1.32

Exercise: If you can, please state the reported composite z-score value of CC(C)OC(=O)C=C1C[C@@H](c2ccc(C(F)(F)F)cc2)O[C@@H](c2ccc(C(F)(F)F)cc2)O1 .
Key: 0.886

Exercise: If you can, please state the reported composite z-score value of [N-]=[N+]=Nc1ccccc1C[C@]1(C(=O)N2CCOCC2)N=C(c2ccc(OCCCO)cc2)O[C@H]1c1ccccc1 .
Key: 1.36

Each recorded value in this set is attributed to PubChem BioAssay.
